The reported numbers originate from patent US9303092B2.

Overview of recorded Relative Potency to METH, mAb6H4 for various compounds
- System: mAb6H4
- Test details: RIA binding specificity, relative potency to METH
- Set-up: species or system mouse
- Settings: RIA IC50 value for METH/RIA IC50 value for test ligand

Here is how some compounds turned out for Relative Potency to METH, mAb6H4.
Relative Potency to METH, mAb6H4 reported for this compound CN[C@H](C)[C@@H](O)c1ccccc1 [(+)ephedrine] : <0.001

Relative Potency to METH, mAb6H4 reported for this compound NCCc1ccc(O)cc1 : <0.001

Further cases:
Relative Potency to METH, mAb6H4 reported for this compound CC(N)Cc1ccc2c(c1)OCO2 (single isomer, unassigned; (-)) [(−)MDA] : <0.001
